# System: RAW-Dual (murine macrophage reporter line)
# measurementDescription: IRF reporter (Lucia luciferase) activity fold change vs agonist alone; higher = enhanced IRF activity
# runConditions: modulator concentration 10 µM; agonist: 3'3'-cGAMP 10 ug/mL
measurementKind: IRF reporter
// keep it numeric: no unit symbol after the value

{"columns": ["molecule", "measurementTarget", "IRF reporter"],
 "data": [
  ["CCc1cc(=O)oc2cc(OCC(=O)OC(C)C)ccc12", "RAW-Dual (murine macrophage reporter line)", 1.04],
  ["CC(C)NCC(O)COc1ccc(CCOCC2CC2)cc1 (stereo not given)", "RAW-Dual (murine macrophage reporter line)", 0.907],
  ["Cn1c(=O)c2c(ncn2CC(O)CO)n(C)c1=O (stereo not given)", "RAW-Dual (murine macrophage reporter line)", 0.887],
  ["Nc1ccn(C2OC(CO)C(O)C2O)c(=O)n1 (stereo not given)", "RAW-Dual (murine macrophage reporter line)", 0.96]
]}

We next turn to a different molecule, shown below.
[Q] Write down the reported IRF reporter of CC(C)(C)c1cc(C(=O)Oc2cccc3cccnc23)cc(C(C)(C)C)c1 , test system: RAW-Dual (murine macrophage reporter line).
[A] 0.938

* * *

Measured IRF reporter by item
# Tested on: RAW-Dual (murine macrophage reporter line)
# measurementDescription: IRF reporter (Lucia luciferase) activity fold change vs agonist alone; higher = enhanced IRF activity
# runConditions: modulator concentration 10 µM; agonist: 3'3'-cGAMP 10 ug/mL
// keep it numeric: no unit symbol after the value

{"columns": ["compound", "IRF reporter"],
 "data": [
  ["CCOC(=O)C(CCc1ccccc1)NC1CCc2ccccc2N(CC(=O)O)C1=O.Cl (stereo not drawn)", 0.967],
  ["CN(C)CCC=C1c2ccccc2C=Cc2ccccc21.Cl", 0.406]
]}

[Q] Write down the reported IRF reporter of O=C1c2cccc3c2[C@H](CCC3)CN1[C@@H]1CN2CCC1CC2 , test system: RAW-Dual (murine macrophage reporter line).
[A] 0.63

* * *

# Tested on: RAW-Dual (murine macrophage reporter line)
# measurementDescription: NF-kB reporter (SEAP) activity fold change vs agonist alone; higher = enhanced NF-kB activity
# runConditions: modulator concentration 10 µM; agonist: MPLA […]
Measured NF-kB reporter by item

Worked cases, answers included:
{"columns": ["molecule", "measurementTarget", "measurementKind", "measuredResult"],
 "data": [
  ["O=C(Nc1ccc(S(=O)(=O)Nc2ccc(F)cc2)cc1)C(F)(F)F", "RAW-Dual (murine macrophage reporter line)", "NF-kB reporter", 0.93],
  ["O=C(Nc1ccccn1)NC1CCS(=O)(=O)C1 (centres undefined)", "RAW-Dual (murine macrophage reporter line)", "NF-kB reporter", 0.748],
  ["CCOC(=O)c1sc(NN=Cc2cccc(Cl)c2)nc1C", "RAW-Dual (murine macrophage reporter line)", "NF-kB reporter", 0.89],
  ["NNc1ncnc2scc(-c3ccc(Cl)cc3)c12", "RAW-Dual (murine macrophage reporter line)", "NF-kB reporter", 1.32],
  ["N#Cc1c(N=Cc2ccc(O)cc2)sc2c1CCCC2", "RAW-Dual (murine macrophage reporter line)", "NF-kB reporter", 0.979]
]}

[Q] Write down the reported NF-kB reporter of CC1CC(OC(=O)C(O)c2ccccc2)CC(C)(C)N1C (centres undefined) , test system: RAW-Dual (murine macrophage reporter line).
[A] 1.02

[Q] Write down the reported NF-kB reporter of COC(=O)Nn1cnnc1 , test system: RAW-Dual (murine macrophage reporter line).
[A] 0.97

[Q] Write down the reported NF-kB reporter of O=C(Cc1ccc([N+](=O)[O-])cc1)NN=Cc1ccccn1 , test system: RAW-Dual (murine macrophage reporter line).
[A] 1.04

[Q] Write down the reported NF-kB reporter of CN1CCCC(n2nc(Cc3ccc(Cl)cc3)c3ccccc3c2=O)CC1.Cl (centres undefined) , test system: RAW-Dual (murine macrophage reporter line).
[A] 1.42

[Q] Write down the reported NF-kB reporter of COC(=O)C1=C(C)NC(C)=C(C(=O)OCCN2CCN(C(c3ccccc3)c3ccccc3)CC2)C1c1cccc([N+](=O)[O-])c1.Cl.Cl (centres undefined) , test system: RAW-Dual (murine macrophage reporter line).
[A] 0.799

[Q] Write down the reported NF-kB reporter of Br.Fc1ccc(-c2csc(Nc3ccc4c(c3)OCO4)n2)cc1 , test system: RAW-Dual (murine macrophage reporter line).
[A] 1.02

[Q] Write down the reported NF-kB reporter of COc1ccc(OC2CCN(C(=O)C3CCOC3)C2)nn1 (centres undefined) , test system: RAW-Dual (murine macrophage reporter line).
[A] 0.949

[Q] Write down the reported NF-kB reporter of O=Cc1ccc(OC(=O)c2cccc(C(=O)Oc3ccc(C=O)cc3)c2)cc1 , test system: RAW-Dual (murine macrophage reporter line).
[A] 1.02

[Q] Write down the reported NF-kB reporter of CCOC(=O)Nc1nc(C)c(C(C)=O)s1 , test system: RAW-Dual (murine macrophage reporter line).
[A] 1.12
